# test_protocol: qHTS for Inhibitors of the Functional Ribonucleoprotein Complex (vRNP) of Lymphocytic Choriomeningitis Arenaviruses (LCMV): Viability assay - alamar blue signal for LCMV Primary Screen (AID 1347085); further: nearly all actives have a fitted effect of over 80% in size
# condition_notes: alamar blue viability counter-screen, LCMV vRNP screen cells; series mostly up to 57.5 µM
Inconclusive results are not listed. Calls of active or inactive are those of the source. The call rests on the fitted dose curve; tested in HEK293 reporter line.
Please reply with one of these outcomes: active, inactive

Answered cases to consult:
INSERT INTO measurements (structure_smiles, class_assignment) VALUES
  ('Cc1cc(C=c2sc3nc4ccccc4n3c2=O)c(C)n1-c1ccccc1', 'inactive'),
  ('CCN1CCN(Cc2ccc(-c3cc4c(N[C@H](C)c5ccccc5)ncnc4[nH]3)cc2)CC1', 'inactive'),
  ('OCc1ccccn1', 'inactive');

Any idea what this test logged for CC(O)=C(C#N)C(=O)Nc1cc(Br)ccc1Br ?
inactive

Check the results log: what was the call for CCC(=O)N[C@H]1CC[C@H](C(=O)N(C)c2ccc(-c3nc4ccccc4o3)cc2)C1 ?
active

Could you please tell me the result logged for CC(=O)NCCC(=O)N[C@@H](CCC(N)=O)C(=O)N[C@@H](CO)C(=O)N[C@@H](CCC(N)=O)C(=O)N[C@@H](CCC(N)=O)C(=O)N[C@H](C(=O)N[C@@H](Cc1ccccc1)C(=O)N[C@]1(C)CCCCCCC=CCCC[C@@](C)(C(=O)N[C@@H](CCC(N)=O)C(=O)N[C@@H](CC(N)=O)C(N)=O)NC(=O)[C@H](CC(C)C)NC(=O)[C@H](CC(C)C)NC(=O)[C@@H](CCCNC(=N)N)NC(=O)[C@H](Cc2c[nH]c3ccccc23)NC(=O)[C@H](CC(C)C)NC(=O)[C@H](CC(N)=O)NC1=O)[C@H](C)O in this assay?
inactive
